- Tested on: PPARg:RXRa (NR concentration 180 nM, RXRa partner concentration 90 nM)
- EXPERIMENTAL_PROTOCOL: PBM binding z-score (relative to random genomic background probes); higher = stronger binding; sequences stand for … in GC…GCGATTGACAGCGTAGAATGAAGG
PBM binding z-score overview
RECORDED_METRIC: PBM binding z-score

{"CHAIN": "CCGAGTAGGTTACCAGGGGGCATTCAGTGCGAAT", "TEST_SYSTEM": "PPARg:RXRa (NR concentration 180 nM, RXRa partner concentration 90 nM)", "RECORDED_METRIC": "PBM binding z-score", "MEASUREMENT": 2.1}
{"CHAIN": "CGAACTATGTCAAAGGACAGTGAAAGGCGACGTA", "TEST_SYSTEM": "PPARg:RXRa (NR concentration 180 nM, RXRa partner concentration 90 nM)", "RECORDED_METRIC": "PBM binding z-score", "MEASUREMENT": 5.1}
{"CHAIN": "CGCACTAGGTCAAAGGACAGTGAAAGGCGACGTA", "TEST_SYSTEM": "PPARg:RXRa (NR concentration 180 nM, RXRa partner concentration 90 nM)", "RECORDED_METRIC": "PBM binding z-score", "MEASUREMENT": 10.1}
{"CHAIN": "TCTAGCTGGTCACGGAGGTCACACACGACGGGTA", "TEST_SYSTEM": "PPARg:RXRa (NR concentration 180 nM, RXRa partner concentration 90 nM)", "RECORDED_METRIC": "PBM binding z-score", "MEASUREMENT": 3.35}
{"CHAIN": "ACTCGGAGGACAAATGTCAGAGCTACGCCAGTGA", "TEST_SYSTEM": "PPARg:RXRa (NR concentration 180 nM, RXRa partner concentration 90 nM)", "RECORDED_METRIC": "PBM binding z-score", "MEASUREMENT": 1.34}
{"CHAIN": "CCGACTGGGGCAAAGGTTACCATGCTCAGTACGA", "TEST_SYSTEM": "PPARg:RXRa (NR concentration 180 nM, RXRa partner concentration 90 nM)", "RECORDED_METRIC": "PBM binding z-score", "MEASUREMENT": 11}
{"CHAIN": "AGAATGAGGTTATACGTAGGTCAGGGAAGAAAGT", "TEST_SYSTEM": "PPARg:RXRa (NR concentration 180 nM, RXRa partner concentration 90 nM)", "RECORDED_METRIC": "PBM binding z-score", "MEASUREMENT": 2.84}
{"CHAIN": "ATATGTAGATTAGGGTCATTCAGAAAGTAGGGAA", "TEST_SYSTEM": "PPARg:RXRa (NR concentration 180 nM, RXRa partner concentration 90 nM)", "RECORDED_METRIC": "PBM binding z-score", "MEASUREMENT": 3.51}
{"CHAIN": "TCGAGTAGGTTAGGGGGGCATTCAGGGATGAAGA", "TEST_SYSTEM": "PPARg:RXRa (NR concentration 180 nM, RXRa partner concentration 90 nM)", "RECORDED_METRIC": "PBM binding z-score", "MEASUREMENT": 5.66}
{"CHAIN": "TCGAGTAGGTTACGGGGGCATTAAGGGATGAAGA", "TEST_SYSTEM": "PPARg:RXRa (NR concentration 180 nM, RXRa partner concentration 90 nM)", "RECORDED_METRIC": "PBM binding z-score", "MEASUREMENT": 6.03}
{"CHAIN": "CCTTACGGGTCTCTCCAGGTTATAGCATCGGAGT", "TEST_SYSTEM": "PPARg:RXRa (NR concentration 180 nM, RXRa partner concentration 90 nM)", "RECORDED_METRIC": "PBM binding z-score", "MEASUREMENT": -0.0815}
{"CHAIN": "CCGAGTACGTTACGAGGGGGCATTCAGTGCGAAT", "TEST_SYSTEM": "PPARg:RXRa (NR concentration 180 nM, RXRa partner concentration 90 nM)", "RECORDED_METRIC": "PBM binding z-score", "MEASUREMENT": 0.00178}
{"CHAIN": "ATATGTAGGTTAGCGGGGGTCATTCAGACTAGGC", "TEST_SYSTEM": "PPARg:RXRa (NR concentration 180 nM, RXRa partner concentration 90 nM)", "RECORDED_METRIC": "PBM binding z-score", "MEASUREMENT": 6.96}
{"CHAIN": "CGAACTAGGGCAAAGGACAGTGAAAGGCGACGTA", "TEST_SYSTEM": "PPARg:RXRa (NR concentration 180 nM, RXRa partner concentration 90 nM)", "RECORDED_METRIC": "PBM binding z-score", "MEASUREMENT": 9.04}
{"CHAIN": "AGTCAAAATTCACTAGGTAACGTAAGATTCAGCT", "TEST_SYSTEM": "PPARg:RXRa (NR concentration 180 nM, RXRa partner concentration 90 nM)", "RECORDED_METRIC": "PBM binding z-score", "MEASUREMENT": 0.791}
{"CHAIN": "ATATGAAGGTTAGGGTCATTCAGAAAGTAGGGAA", "TEST_SYSTEM": "PPARg:RXRa (NR concentration 180 nM, RXRa partner concentration 90 nM)", "RECORDED_METRIC": "PBM binding z-score", "MEASUREMENT": 4}
{"CHAIN": "CCTACTGGGCCAAGGTCATTGCTCAGTCAAAGCA", "TEST_SYSTEM": "PPARg:RXRa (NR concentration 180 nM, RXRa partner concentration 90 nM)", "RECORDED_METRIC": "PBM binding z-score", "MEASUREMENT": 3.88}
{"CHAIN": "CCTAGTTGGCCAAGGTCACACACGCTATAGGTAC", "TEST_SYSTEM": "PPARg:RXRa (NR concentration 180 nM, RXRa partner concentration 90 nM)", "RECORDED_METRIC": "PBM binding z-score", "MEASUREMENT": 2.42}
{"CHAIN": "CGAACTAGGTCAAAGGACAGTAAAAGGCGACGTA", "TEST_SYSTEM": "PPARg:RXRa (NR concentration 180 nM, RXRa partner concentration 90 nM)", "RECORDED_METRIC": "PBM binding z-score", "MEASUREMENT": 9.93}
{"CHAIN": "CCTAGTTGGTCAAGGTCACGCACGCTATAGGTAC", "TEST_SYSTEM": "PPARg:RXRa (NR concentration 180 nM, RXRa partner concentration 90 nM)", "RECORDED_METRIC": "PBM binding z-score", "MEASUREMENT": 3.69}
{"CHAIN": "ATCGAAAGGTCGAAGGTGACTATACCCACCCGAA", "TEST_SYSTEM": "PPARg:RXRa (NR concentration 180 nM, RXRa partner concentration 90 nM)", "RECORDED_METRIC": "PBM binding z-score", "MEASUREMENT": 5.16}
{"CHAIN": "CCGAGTAGGTTACGAGGGCGCATTCAGTGCGAAT", "TEST_SYSTEM": "PPARg:RXRa (NR concentration 180 nM, RXRa partner concentration 90 nM)", "RECORDED_METRIC": "PBM binding z-score", "MEASUREMENT": 2.6}
{"CHAIN": "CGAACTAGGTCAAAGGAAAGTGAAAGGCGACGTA", "TEST_SYSTEM": "PPARg:RXRa (NR concentration 180 nM, RXRa partner concentration 90 nM)", "RECORDED_METRIC": "PBM binding z-score", "MEASUREMENT": 8.32}
{"CHAIN": "ATCTCTAGGTAAAGTTCAGCGAAAGATCGATAGA", "TEST_SYSTEM": "PPARg:RXRa (NR concentration 180 nM, RXRa partner concentration 90 nM)", "RECORDED_METRIC": "PBM binding z-score", "MEASUREMENT": 3.77}
{"CHAIN": "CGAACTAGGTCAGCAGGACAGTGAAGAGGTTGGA", "TEST_SYSTEM": "PPARg:RXRa (NR concentration 180 nM, RXRa partner concentration 90 nM)", "RECORDED_METRIC": "PBM binding z-score", "MEASUREMENT": 5.96}
{"CHAIN": "CAAACTAGGTCACGAAAGGGCAAAGTCGAATGAC", "TEST_SYSTEM": "PPARg:RXRa (NR concentration 180 nM, RXRa partner concentration 90 nM)", "RECORDED_METRIC": "PBM binding z-score", "MEASUREMENT": 9.64}
{"CHAIN": "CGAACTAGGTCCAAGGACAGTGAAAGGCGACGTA", "TEST_SYSTEM": "PPARg:RXRa (NR concentration 180 nM, RXRa partner concentration 90 nM)", "RECORDED_METRIC": "PBM binding z-score", "MEASUREMENT": 1.53}
{"CHAIN": "ACTAGTAGGTCAGCTGAGGTCACACACAATTCGG", "TEST_SYSTEM": "PPARg:RXRa (NR concentration 180 nM, RXRa partner concentration 90 nM)", "RECORDED_METRIC": "PBM binding z-score", "MEASUREMENT": 7.75}
{"CHAIN": "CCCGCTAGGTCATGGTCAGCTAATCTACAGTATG", "TEST_SYSTEM": "PPARg:RXRa (NR concentration 180 nM, RXRa partner concentration 90 nM)", "RECORDED_METRIC": "PBM binding z-score", "MEASUREMENT": 2.43}
{"CHAIN": "ATATGTAGGTTAGGGTCATTAAGAAAGTAGGGAA", "TEST_SYSTEM": "PPARg:RXRa (NR concentration 180 nM, RXRa partner concentration 90 nM)", "RECORDED_METRIC": "PBM binding z-score", "MEASUREMENT": 7.9}
